test system: Mus musculus; assay: Anticonvulsant activity in Albino mouse at 300 mg/kg, ip after 0.5 hrs by PTZ assay; format: functional, organism-based; parameters: dose 300 mg/kg
The source made the active and inactive calls. The calls are words filed in the database; no cut-off is given here.
Measurement Label: Activity

Smiles String: CCCN(CCC)S(=O)(=O)NC(=O)OC(C)(C)C
Assay System: Mus musculus
Measurement Label: Activity
Value Reported: inactive

Smiles String: CCCN(CCC)S(=O)(=O)N(CCC)CCC
Assay System: Mus musculus
Measurement Label: Activity
Value Reported: inactive

Smiles String: O=S(=O)(NC1CC1)NC1CC1
Assay System: Mus musculus
Measurement Label: Activity
Value Reported: inactive

Smiles String: NS(=O)(=O)NCc1ccccc1
Assay System: Mus musculus
Measurement Label: Activity
Value Reported: inactive

Smiles String: CCCCN(CCCC)S(=O)(=O)NC(=O)OC(C)(C)C
Assay System: Mus musculus
Measurement Label: Activity
Value Reported: inactive

Smiles String: CC(C)(C)OC(=O)NS(=O)(=O)NCc1ccccc1
Assay System: Mus musculus
Measurement Label: Activity
Value Reported: inactive

Smiles String: CCCCN(CCCC)S(=O)(=O)N(CCCC)CCCC
Assay System: Mus musculus
Measurement Label: Activity
Value Reported: inactive

Smiles String: CCCCNS(=O)(=O)NC(=O)OC(C)(C)C
Assay System: Mus musculus
Measurement Label: Activity
Value Reported: inactive
